Hey, just so you know, these numbers are from ChEMBL document CHEMBL1151862.

# Test system: Candida albicans
# Test Protocol: Antifungal activity against Candida albicans ATCC 10231 after 1 hr by CLSI M26-A based method at room temperature
# Format: functional
# Run Parameters: ATCC 10231, 1 h
Below, each of the compounds is paired with its reported MFC value.
Number in mg/L, nothing else.

Please review the entries below; each comes with its answer.
> print(dat)
                                smiles.repr  readout.value
1      CN(CCS(=O)(=O)O)C(=O)CC(C)(C)N(Cl)Cl             32
2  CN(CC[N+](C)(C)C)C(=O)CC(C)(C)N(Cl)Cl.[Cl-]             32
3   Cc1nc(CC(C)(C)N(Cl)Cl)n(CCS(=O)(=O)O)n1             64
4       CC(C)(Cc1nc(CS(=O)(=O)O)no1)N(Cl)Cl             16
5        CC(C)(CS(=O)(=O)[O-])N(Cl)Cl.[Na+]             32

Query block: For CC(C)(C[N+](C)(C)CCS(=O)(=O)O)N(Cl)Cl.[Cl-] , what is its reported MFC?
Result block: 128

Query block: For C[S+](C)CC(C)(C)N(Cl)Cl.[Cl-] , what is its reported MFC?
Result block: 128

Query block: For CC(C)(Cc1ncnn1CCS(=O)(=O)O)N(Cl)Cl , what is its reported MFC?
Result block: 64

Query block: For CC(C)(C[N+]1(C)CCCCC1)N(Cl)Cl.[Cl-] , what is its reported MFC?
Result block: 64

Query block: For Cc1nn(C)c(CC(C)(C)N(Cl)Cl)[n+]1C.[Cl-] , what is its reported MFC?
Result block: 32

Query block: For Cn1nc[n+](C)c1CC(C)(C)N(Cl)Cl.[Cl-] , what is its reported MFC?
Result block: 16
